Tested on: OVCAR-3
Assay: NCI tumour cell line growth inhibition, 48 h
Activity calls are given as the source filed them. Cut-off read from the data, not from the text of the source: active = GI50 up to about 1.1 µM and inactive = higher.
Just give me one of these, please: active, inactive

Worked examples follow.
CC(CC(=O)O)(CC(=O)O)C(=O)O; inactive
Cc1cc(-c2no[n+]([O-])c2-c2cc(C)sc2S(C)(=O)=O)c(S(C)(=O)=O)s1; inactive

Qu. # outcome recorded in this test, key = `[O-]c1c2c(nn1-c1ccc(Cl)cc1)c1ccccc1c[n+]2Cc1ccccc1`
Ans. inactive

Qu. Could you please tell me the result logged for `COc1cc2ccc(C(=O)NCCCNC(=O)c3ccc4cc(OC)c(OC)cc4c3)cc2cc1OC` in this assay?
Ans. inactive

Qu. Fill in: this test's call for CC(=O)N1CN2C(=O)CCC2c2cc(C)ccc21 (stereo not given) is ___
Ans. inactive

Qu. Short answer needed: outcome of this test for `O=[N+]([O-])c1ccc(Cc2nc3ccccc3s2)cc1` ?
Ans. inactive

Qu. I'd appreciate the recorded outcome for `CCCCCC(=O)c1ccc2[nH]c3c(C)cc([N+](=O)[O-])c(C)c3c2c1` from this test.
Ans. inactive

Qu. Record request — test call for `Sc1nc(S)nc(Oc2ccc(Cl)c(Cl)c2)n1`
Ans. inactive

Qu. Write down the call the test reported for this compound. Item: `O=C(/C=N/c1ccccc1C(=O)[O-])c1cccs1.O=C(/C=N/c1ccccc1C(=O)[O-])c1cccs1.[Zn+2]`
Ans. inactive

Qu. Each compound tested received a call. Report the one for O=C1c2c(O)ccc(O)c2C(=O)c2c(NCCNC(=O)C(O)C(O)C(O)C(O)CO)ccc(NCCNC(=O)C(O)C(O)C(O)C(O)CO)c21 (stereo not given) .
Ans. active

---

Test system: MDA-N
Experiment: NCI tumour cell line growth inhibition, 48 h
Active and inactive are the calls of the source. No stated cut-off is given here; in the data, active = GI50 up to about 1.1 µM and inactive = higher.
Return exactly one item of 1 for active, -1 for inactive

C=C1C(=O)O[C@H]2C[C@@]3(COC(C)=O)C=COC=C(COC(=O)C(C)C)C3CC12 (some centres undefined); -1
CSc1nc(C)c(CCOC(C)=O)c(Cl)n1; -1
O=C1/C(=C\c2ccc([N+](=O)[O-])cc2)Sc2scc(-c3ccc(O)c(O)c3)[n+]21; -1
C=CCc1cc(C(Cc2ccccc2)NC(C)C)cc(OCc2ccccc2)c1OCc1ccccc1 (centres undefined); -1
O=c1oc2ccccc2cc1-c1cn2ccccc2n1; -1

Qu. Could you check what this test reported for `CN(/N=C/c1cccc2cccnc12)c1ccc(Cl)cc1[N+](=O)[O-]` ?
Ans. -1

Qu. Called result for CC1C[C@]2(C)C(=S)Nc3ccccc3[C@@H]2Nc2ccccc21 (some centres undefined)
Ans. -1

Qu. What call does the record list for `CCCC(=O)Nc1cn(COC)c(C(=O)N2C[C@H]3C[C@@]34C2=CC(=O)c2[nH]cc(C)c24)n1` ?
Ans. -1

---

Here, each record is paired with measured GI50 data.
System: OVCAR-4
Assay: NCI tumour cell line growth inhibition, 48 h
Calls of active or inactive are those of the source. Cut-off read from the data, not from the text of the source: active = GI50 up to about 1.1 µM and inactive = higher.

Notebook: `CO/N=C(\C(=O)O/C(=N/C1CCCCC1)NC1CCCCC1)c1csc(NC(c2ccccc2)(c2ccccc2)c2ccccc2)n1` , GI50 read as > 10 µM (inactive)

---

System: M14
Experiment: NCI tumour cell line growth inhibition, 48 h
Calls of active or inactive are those of the source. No stated cut-off is given here; in the data, active = GI50 up to about 1.1 µM and inactive = higher.
observed-property: GI50

CC1S(=O)(=O)OCCOS1(=O)=O; > 100 µM (inactive)
Cc1ccc2c(c1)C=CC1(O2)N(c2ccccc2)C(=S)OC1(C)C (stereo not given); 43.8 µM (inactive)
O=C(Cc1ccccc1)NN1C(=O)C(Cl)C1c1ccc(Cl)cc1 (stereo not given); > 100 µM (inactive)
COc1ccc(NC(=S)N/N=C/c2cccc(C)n2)cc1; 2.4 µM (inactive)
COc1ccccc1/N=N/C(=N/NC(=O)c1ccc(C)cc1)c1ccc(N(CCC#N)CCC#N)cc1OC; 29.4 µM (inactive)

So, `N#Cc1c(O)nc2nn3c4ccc5ccccc5c4nnc3c2c1-c1ccc(Cl)cc1` ? Its GI50 was 2.38 µM (inactive)

Record summary for `CS/C(=C(\S)c1ccccc1)c1ccccc1` : reported GI50 = > 100 µM (inactive)

Reported GI50 ( `CN(C)CCCN1c2ccccc2C(C)(C)c2ccccc21` ) = 15.5 µM (inactive)

Note to self: GI50 recorded for `CC(=O)OCCOCNC(=S)N/N=C(\C)c1cnc2ccccc2n1` was 36 µM (inactive)

Kindly note the recorded GI50 for `COC(=O)Cc1cccc2c(=O)c(S(=O)(=O)NC(=O)Nc3ccc(Cl)cc3)c(-c3ccccc3)oc12` , which is > 100 µM (inactive)

---

Tested on: RXF 393
Assay: NCI tumour cell line growth inhibition, 48 h
Activity calls are given as the source filed them. Rule as the data show it: active = GI50 up to about 1.1 µM and inactive = higher.
Please answer using one outcome listed in class 1 = active, class 0 = inactive

Below, 3 compounds whose answers are already recorded.
CC(=O)OC(OC(C)=O)c1ccc2ccc3cccc4ccc1c2c34; class 0
COc1ccc2c(c1)CCCC(Br)C2=O (stereo unspecified); class 0
O=C(OC12CC3CC(CC(C3)C1)C2)c1ccc(NCc2cc(O)ccc2O)cc1; class 1

Qu. Hi, sorry to bother you, what did the test record for C#CC(O)Cc1ccc(OC)c2occc12 (stereo unspecified) ?
Ans. class 0

Qu. Please share the test call associated with `CCOC(=O)C1(C(=O)OCC)[C@@H](c2ccccc2)C2=NO[C@@H]3CCC[C@H]1[C@H]23` .
Ans. class 0

Qu. Would you mind telling me which call this test gave Cc1c(-c2ccccc2)n[nH]c1NC1(C)C(=O)N(/N=C/c2ccccc2)N=C1c1ccccc1 (stereo unspecified) ?
Ans. class 0

Qu. Test call for this compound, please: CC(=O)C(C(=N)C#N)C(=O)Nc1ccccc1 (stereo unspecified)
Ans. class 0

Qu. Query: recorded result category for `Cc1nc2ccccc2n1Cc1ccc(NC(=S)Nc2ccccc2)cc1` in this test
Ans. class 0

Qu. Hey, what did the test say about `O=C[C@@H](CO)O[C@H](C=O)c1c[nH]c(=O)[nH]c1=O` ?
Ans. class 0

Qu. Entry COC(=O)/C=C\c1ccc2c(c1)CC1(C2)Cc2ccc(/C=C/C(=O)OC)cc2C1 (stereo unspecified) : call = ?
Ans. class 0

Qu. Recorded call for CC(=O)C(CN(C)C)C(c1ccccc1)c1c(O)c2ccccc2oc1=O (stereo unspecified) ?
Ans. class 0

---

System: RPMI-8226
Test: NCI tumour cell line growth inhibition, 48 h
The source made the active and inactive calls. No stated cut-off is given here; in the data, active = GI50 up to about 1.1 µM and inactive = higher. Where a SMILES comes first, the peptide text is derived from it. [ ]: non-standard residue; d: D form. Phe(4-Cl) = N[CH](Cc1ccc(Cl)cc1)C(=O)O
observed-property: GI50

Worked examples, 5 compounds total:
CSC(C1c2ccccc2N(C)c2[nH]c(=O)n(C)c(=O)c21)S(=O)(=O)c1ccc(C)cc1 (centres undefined); > 10 µM (inactive)
C/C(=N\NC(=S)Nc1ccc([N+](=O)[O-])cc1S(=O)(=O)O)c1ccccn1; 40 µM (inactive)
CCc1ccc(NCc2cc(OC)c(OC)c(OC)c2)cc1; 0.303 µM (active)
CCC(c1ccc(N(C)C)cc1)C1NC(=S)NC1=O (centres undefined); 46 µM (inactive)
CC(O)C(NC(=O)C(Cc1ccccc1)NC(=O)C(NC(=O)C(CCCCN)NC(=O)C(Cc1c[nH]c2ccccc12)NC(=O)C(Cc1ccc(O)cc1)NC(=O)C(Cc1ccc(Cl)cc1)NC(=O)C(N)Cc1ccccc1)C(C)O)C(N)=O (centres undefined) (H-F[Phe(4-Cl)]YWKTFT-NH2; configuration not given here); 14 µM (inactive)

Tested on RPMI-8226, the item `CCn1nc2c3c(ncn3C(C)(C)O2)c1=O` showed GI50 equal to > 100 µM (inactive)

Let me check: `O=C(CC(=O)c1ccccc1)CC(O)(c1ccccc1)c1ccccc1` , system RPMI-8226, measured GI50 is 4.05 µM (inactive)

Observed GI50, RPMI-8226, `N=C(/C=C/c1ccc(-c2cn3cc(/C=C/C(=N)N4CCCC4)ccc3n2)cc1)N1CCCC1` : > 100 µM (inactive)

Entry CC1(C)OC(=O)C2(O1)C(=O)C1CCCCC12 (centres undefined) ; assay system RPMI-8226; GI50 recorded at > 100 µM (inactive)

Noted GI50 for `O=C(N/N=C/c1ccc([N+](=O)[O-])o1)c1ccc(C(=O)N/N=C/c2ccc([N+](=O)[O-])o2)cc1` , tested on RPMI-8226: 2.55 µM (inactive)

---

Test system: BT-549
Assay: NCI tumour cell line growth inhibition, 48 h
Calls of active or inactive are those of the source. Rule as the data show it: active = GI50 up to about 1.1 µM and inactive = higher.
One label from this list, please: 1 = active, 0 = inactive

Study these solved cases before continuing.
O=C(O)Cc1cccc2c1OC(c1ccccc1)C(Cl)(C(=O)c1ccccc1)C2=O (stereo not drawn); 0
CC(C)[Si](Oc1ccc(CC2N(C(=O)c3ccc([N+](=O)[O-])cc3)C(CCc3ccccc3)CC2(C)C=O)cc1)(C(C)C)C(C)C (stereo not drawn); 0
O=C(N/N=C\c1ccc2ccccc2c1)Nc1ccc([N+](=O)[O-])cc1; 0

Qu. Identify the outcome logged in this assay for the compound shown: `O/N=N/c1cnccn1`
Ans. 0

Qu. Any idea what this test logged for `O=C(CNC(=O)c1ccccc1)Oc1c(Cl)c(Cl)c(Cl)c(Cl)c1Cl` ?
Ans. 0

Qu. What outcome does the record of this test show for `CCCC(=O)Nc1cn(COC)c(C(=O)N2C[C@H]3C[C@@]34C2=CC(=O)c2[nH]cc(C)c24)n1` ?
Ans. 0

Qu. Could you please tell me the result logged for `Nc1nc(O)c2ncn([C@H]3CC[C@@H](CO)O3)c2n1` in this assay?
Ans. 0

Qu. Tell me the assay call for `O=C[C@@H](CO)O[C@H](C=O)c1c[nH]c(=O)[nH]c1=O` please.
Ans. 0
